Just for reference, patent US20240228506A1 is where these values come from.

- assay_target: GST-RIPK1 (recombinant GST-RIPK1 kinase domain (residues 1-327)) (Homo sapiens, UniProt Q13546)
- Construct: recombinant GST-RIPK1 kinase domain (residues 1-327) enzyme
- Sequence (Q13546 1-327): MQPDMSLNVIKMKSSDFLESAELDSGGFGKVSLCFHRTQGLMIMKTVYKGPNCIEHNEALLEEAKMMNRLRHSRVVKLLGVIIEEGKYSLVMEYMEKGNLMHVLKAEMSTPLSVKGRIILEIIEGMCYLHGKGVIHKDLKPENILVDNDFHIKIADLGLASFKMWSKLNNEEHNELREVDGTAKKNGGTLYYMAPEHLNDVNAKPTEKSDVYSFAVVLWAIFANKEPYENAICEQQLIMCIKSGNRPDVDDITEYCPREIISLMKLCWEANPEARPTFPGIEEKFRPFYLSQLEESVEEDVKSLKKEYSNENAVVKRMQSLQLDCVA
- procedure_details: RIPK1-ADP-Glo enzymatic assay
- run_conditions: 25 nM GST-RIPK1, 300 μM ATP, 3 μM dephosphorylated-MBP; 30 minutes pre-incubation, 150 minutes reaction; ten-point titration
quantity: IC50 (nM)

CC(C)(C(=O)N1C[C@@H]2C[C@H]1c1cncc(C#N)c1O2)C1CCC1; 119
COc1ccnc(C#Cc2cncc3c2O[C@H]2C[C@@H]3N(C(=O)C34CCC(C(F)(F)F)(CC3)C4)C2)c1; 41
N#Cc1cncc2c1O[C@H]1C[C@@H]2N(C(=O)C2(C(F)F)CCC2)C1; 88
N#Cc1cncc2c1O[C@H]1C[C@@H]2N(C(=O)C23CCC(CC2)OC3)C1; 313
CC1(C(=O)N2C[C@@H]3C[C@H]2c2cncc(C#Cc4ccc(F)cc4)c2O3)CCCC1; 34

a = CC(C)(C(=O)N1C[C@@H]2C[C@H]1c1cncc(C#Cc3cncc(C(F)(F)F)c3)c1O2)C(F)F
b = CC(C)(C#N)C(=O)N1C[C@@H]2C[C@H]1c1cncc(C#N)c1S2
c = O=C(N1C[C@@H]2C[C@H]1c1cncc(C#Cc3ccccc3)c1O2)C12CCC(C(F)(F)F)(CC1)C2
d = CC1(C(=O)N2C[C@@H]3C[C@H]2c2cncc(C#N)c2O3)CC1(F)F (single isomer, unassigned) [Compound 1-29]
e = CC(C)(C(=O)N1C[C@@H]2C[C@H]1c1cncc(C#Cc3cnc(C(F)(F)F)nc3)c1O2)C(F)F
Please rank these compounds by IC50 in descending order. Order the labels as requested and list them.
d, b, e, a, c
